Target: Aβ40 aggregates (amyloid beta) (Homo sapiens)
Sequence (P05067 672-711 limits assumed): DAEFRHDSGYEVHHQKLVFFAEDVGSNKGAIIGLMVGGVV
Test: fluorescence titration with Aβ aggregates
Assay type: binding
observation type: Kd
State the result as a value with its unit after it.

## Input Any idea what Kd was measured for "CRANAD-147" ?
## Output 2890 nM
